target.system: MMP-3CD (stromelysin-1 catalytic domain) (Homo sapiens, UniProt P08254)
Construct: MMP-3CD (stromelysin-1 catalytic domain)
Sequence (P08254 100-272 limits assumed): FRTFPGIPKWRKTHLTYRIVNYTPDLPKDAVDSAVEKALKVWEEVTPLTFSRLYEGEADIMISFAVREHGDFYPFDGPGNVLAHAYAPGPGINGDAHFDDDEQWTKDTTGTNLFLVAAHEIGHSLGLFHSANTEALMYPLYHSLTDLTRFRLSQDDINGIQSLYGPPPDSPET
assay.summary: MMP inhibition, thiopeptolide substrate assay
Format: biochemical
experimental.conditions: thiopeptolide substrate Ac-Pro-Leu-Gly-thioester-Leu-Leu-Gly-OEt
observed.property: IC50 (µM)

molecule: O=C(O)CCC(=NO)c1ccc2c3c(oc2c1)CCCC3
number: 0.114

P = O=C(CC(CCCc1ccccc1)C(=O)O)c1ccc2c3c(oc2c1)CCCC3 (stereo not drawn)
Q = CN1C(=O)N(CC(CC(=O)c2ccc3c4c(oc3c2)CCCC4)C(=O)O)C(=O)C1(C)C (stereo not drawn)
Select one: P or Q . Criterion: greater recorded IC50. Give the label of your selection.
Q

* * *

target.system: MMP-2FL (gelatinase A full length enzyme) (Homo sapiens, UniProt P08253)
Construct: MMP-2FL (gelatinase A full length enzyme)
Sequence (P08253 110-660): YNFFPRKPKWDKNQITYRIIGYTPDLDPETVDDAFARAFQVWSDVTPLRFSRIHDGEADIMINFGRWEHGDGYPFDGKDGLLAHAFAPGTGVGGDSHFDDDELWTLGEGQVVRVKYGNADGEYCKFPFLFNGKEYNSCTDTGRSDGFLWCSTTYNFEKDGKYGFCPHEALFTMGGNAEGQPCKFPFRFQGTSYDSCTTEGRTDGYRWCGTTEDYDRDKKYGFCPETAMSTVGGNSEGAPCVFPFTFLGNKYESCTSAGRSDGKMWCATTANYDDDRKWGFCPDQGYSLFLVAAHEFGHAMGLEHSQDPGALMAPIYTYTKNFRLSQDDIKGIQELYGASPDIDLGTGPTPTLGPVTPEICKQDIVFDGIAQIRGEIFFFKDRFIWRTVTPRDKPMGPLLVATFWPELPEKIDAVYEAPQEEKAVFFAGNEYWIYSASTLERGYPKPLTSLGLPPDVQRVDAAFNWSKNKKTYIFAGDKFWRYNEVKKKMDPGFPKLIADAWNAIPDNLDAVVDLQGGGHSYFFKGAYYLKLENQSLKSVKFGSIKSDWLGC
assay.summary: MMP inhibition, thiopeptolide substrate assay
Type: biochemical
experimental.conditions: thiopeptolide substrate Ac-Pro-Leu-Gly-thioester-Leu-Leu-Gly-OEt
observed.property: IC50 (µM)

a = O=C(CC(CCCc1ccccc1)C(=O)O)c1ccc2c3c(oc2c1)CCCC3 (stereo not drawn)
b = O=C(O)CCC(=NO)c1ccc2c3c(oc2c1)CCCC3
Decide: a or b , by lowest recorded IC50. // output: label of the selected item
b
(b: 0.0595 µM, a: 0.445 µM)

* * *

target.system: MMP-13CD (collagenase-3 catalytic domain) (Homo sapiens)
Construct: MMP-13CD (collagenase-3 catalytic domain); made in house; host or cells: Escherichia coli
assay.summary: MMP inhibition, thiopeptolide substrate assay
Type: biochemical
experimental.conditions: thiopeptolide substrate Ac-Pro-Leu-Gly-thioester-Leu-Leu-Gly-OEt; catalytic domain expressed in Escherichia coli from a synthetic gene
observed.property: IC50 (µM)

compound: O=C(O)CCC(=NO)c1ccc2c3c(oc2c1)CCCC3
observed.property: IC50
number: 1.21

A = O=C(CC(CCCc1ccccc1)C(=O)O)c1ccc2c3c(oc2c1)CCCC3 (stereo not drawn)
B = CN1C(=O)N(CC(CC(=O)c2ccc3c4c(oc3c2)CCCC4)C(=O)O)C(=O)C1(C)C (stereo not drawn)
Please let me know which one, A or B , has a lower measured IC50 value. // output: label of the selected item
B
(B: 1.42 µM, A: 9.7 µM)

* * *

target.system: MMP-7FL (matrilysin full length enzyme) (Homo sapiens, UniProt P09237)
Construct: MMP-7FL (matrilysin full length enzyme)
Sequence (P09237 95-267): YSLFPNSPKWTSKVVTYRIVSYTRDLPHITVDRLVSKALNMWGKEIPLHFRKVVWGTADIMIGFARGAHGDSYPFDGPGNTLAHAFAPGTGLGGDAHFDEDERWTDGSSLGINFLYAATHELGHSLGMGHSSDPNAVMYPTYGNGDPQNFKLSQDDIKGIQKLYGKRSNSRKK
assay.summary: MMP inhibition, thiopeptolide substrate assay
Assay type: biochemical
experimental.conditions: thiopeptolide substrate Ac-Pro-Leu-Gly-thioester-Leu-Leu-Gly-OEt
observed.property: IC50 (µM)

compound: CN1C(=O)N(CC(CC(=O)c2ccc3c4c(oc3c2)CCCC4)C(=O)O)C(=O)C1(C)C (centres unmarked)
number: 86
//
compound: O=C(CC(CCCc1ccccc1)C(=O)O)c1ccc2c3c(oc2c1)CCCC3 (centres unmarked)
number: 84
